B1: Azoarcus group I ribozyme (parent)
chain: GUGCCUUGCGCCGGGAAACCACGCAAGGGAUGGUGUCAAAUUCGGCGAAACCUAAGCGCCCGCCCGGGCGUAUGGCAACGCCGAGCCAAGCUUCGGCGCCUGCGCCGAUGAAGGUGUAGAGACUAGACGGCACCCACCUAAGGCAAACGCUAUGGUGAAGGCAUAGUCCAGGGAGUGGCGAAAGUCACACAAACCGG

Variants of: B1
Assay: reverse-splicing fitness (ratio to wild type); higher = more active; in vitro selection; Mg2+ level not given
For each entry below, report its reverse-splicing fitness value.
Answers are plain numbers.

Here are 6 variants together with their reported answers.
C82G A111G A120U A145U C150G C169U U176C : 0.00309
C82U A145G C150U C169G : 0.0102
C82A A111C A120G A145C C150G C169A U176G : 0.00531
C82A A111G A145C C150A C169G U176G : 0.00722
C82U A111U A120U A145U C150G C169A U176C : 0.00272
C82G A111G A120C A145G C150A C169U U176C : 0.015

I have 6 variants here; please give me reverse-splicing fitness for each one.
1. A111U A120G A145G C150A C169U
2. C82G A111G A120G C150G U176G
3. A120C A145U U176G
4. C82G A120G C150A U176C
5. C82G A120C A145U C150A C169U
6. C82A A111C A120C A145G C150A U176G

Data returned:
1: 0.028; 2: 0.00387; 3: 0.318; 4: 0.0195; 5: 0.00929; 6: 0.00865

I have 6 variants here; please give me reverse-splicing fitness for each one.
1. C82G A111G A120G A145C C150G C169U U176A
2. A111U A145G C150U
3. A111G A120U A145U C150G C169A
4. C82A A120C A145U C169U U176A
5. C82U A111U A120U A145U C150A U176C
6. A111G A145U C169U U176A

Data returned:
[0.0139, 0.915, 0.00344, 0.0169, 0.00477, 0.0488]

I have 5 variants here; please give me reverse-splicing fitness for each one.
1. A111C A120G C150G
2. A111G A145C C150A U176C
3. C82A A111C A120G A145G C150G C169A
4. C82G A120G C169G U176A
5. A145G C169A U176A

Data returned:
1: 0.0159; 2: 0.128; 3: 0.00875; 4: 0.0234; 5: 0.0412

I have 4 variants here; please give me reverse-splicing fitness for each one.
1. C82G A145C C169U U176C
2. C150G U176A
3. C82A A111C A120G A145G C150G C169A U176A
4. C82U A111C A145C C150U U176A

Data returned:
[0.0115, 0.219, 0.0133, 0.0229]
